Where these numbers come from: patent US20210395239A1

# log10 of IC50 per record follows
Biological target: human TLR7 (Homo sapiens, UniProt Q9NYK1)
Sequence (Q9NYK1 27-1049): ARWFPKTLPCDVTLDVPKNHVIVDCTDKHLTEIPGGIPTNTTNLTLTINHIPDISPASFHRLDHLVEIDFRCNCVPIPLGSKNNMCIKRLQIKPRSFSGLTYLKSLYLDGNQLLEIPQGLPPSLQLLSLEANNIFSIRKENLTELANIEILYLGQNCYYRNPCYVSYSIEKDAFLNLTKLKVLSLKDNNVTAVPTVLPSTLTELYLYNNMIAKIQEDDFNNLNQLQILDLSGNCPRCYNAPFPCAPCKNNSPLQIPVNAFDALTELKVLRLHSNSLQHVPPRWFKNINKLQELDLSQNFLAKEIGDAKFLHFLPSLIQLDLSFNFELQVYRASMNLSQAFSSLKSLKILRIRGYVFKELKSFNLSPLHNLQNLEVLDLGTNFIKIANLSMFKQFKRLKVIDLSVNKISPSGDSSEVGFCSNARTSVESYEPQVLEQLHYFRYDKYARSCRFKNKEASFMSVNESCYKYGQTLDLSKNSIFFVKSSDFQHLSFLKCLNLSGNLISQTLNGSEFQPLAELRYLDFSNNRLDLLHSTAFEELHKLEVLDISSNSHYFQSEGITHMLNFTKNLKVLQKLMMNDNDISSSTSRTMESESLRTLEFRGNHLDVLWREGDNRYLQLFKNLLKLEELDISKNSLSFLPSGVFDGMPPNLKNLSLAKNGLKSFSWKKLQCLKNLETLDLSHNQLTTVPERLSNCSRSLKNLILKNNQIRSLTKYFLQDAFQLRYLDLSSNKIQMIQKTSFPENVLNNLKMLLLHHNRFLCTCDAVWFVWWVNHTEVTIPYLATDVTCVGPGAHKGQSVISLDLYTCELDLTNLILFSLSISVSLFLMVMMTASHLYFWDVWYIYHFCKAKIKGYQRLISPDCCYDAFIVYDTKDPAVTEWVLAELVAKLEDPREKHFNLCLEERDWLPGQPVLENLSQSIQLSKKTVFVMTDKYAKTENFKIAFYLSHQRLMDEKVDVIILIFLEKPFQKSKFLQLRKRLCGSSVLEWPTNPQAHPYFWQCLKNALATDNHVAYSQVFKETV
Experiment: HEK293-Blue-hTLR-7 cells assay (SEAP reporter, R848 stimulation)
Settings: HEK293-Blue-hTLR7 cells, R848, 20 hrs; read-out: HEK/hTLR7 IC50
Procedure: HEK293-Blue-hTLR-7 Cells Assay: A stable HEK293-Blue-hTLR-7 cell line was purchased from InvivoGen (Cat. #: hkb-ht1r7, San Diego, Calif., USA). […] The cell culture supernatant SEAP reporter activity was determined using QUANTI-Blue™ kit (Cat. #: rep-qb1, Invivogen, San Diego, Ca, USA) at a wavelength of 640 nm, a detection medium that turns purple or blue in the presence of alkaline phosphatase. […]
Annotation: log10 of IC50, nM basis.

These recorded examples may help you get a feel for the data.
compound	experimentalReadout	numericValue
C[C@@H]1CN(c2ccc(C#N)c3ncccc23)C[C@H](CN2CCN(c3ccnc(N4CCNCC(O)C4)n3)CC2)O1 (stereo partly shown)	log10 of IC50	1.41
Cc1cnc(N2CCN(C[C@H]3CN(c4ccc(C#N)c5ncccc45)C[C@@H](C)O3)CC2)nc1N1CCNCC1	log10 of IC50	1.26
[2H]c1ccc2c(N3C[C@H](CN4CCN(c5cnc(N6CC(C)(N)C6)cc5C)CC4)O[C@H](C)C3)ccc(C#N)c2n1	log10 of IC50	1.61
CO[C@H]1CN(c2nccc(N3CCN(C[C@H]4CN(c5ccc(C#N)c6ncccc56)C[C@@H](C)O4)CC3)n2)C[C@@H]1N	log10 of IC50	0.90
[2H]c1ccc2c(N3C[C@H](CN4CCN(c5ccc(N6C[C@H]7C[C@@H]6CN7)nc5)CC4)O[C@H](C)C3)ccc(C#N)c2n1	log10 of IC50	1.51

Please respond with reported log10 of IC50 (system human TLR7 (Homo sapiens, UniProt Q9NYK1)) for C[C@@H]1CN(c2cc(=O)n(C)c3ncccc23)C[C@H](CN2CC(c3ccc(N4C[C@H]5NCCO[C@@H]5C4)cc3)C2)O1 .
1.41

Fetch value of log10 of IC50 on human TLR7 (Homo sapiens, UniProt Q9NYK1) for C[C@@H]1CN(c2ccc(C#N)c3ncccc23)C[C@H](CN2CC(c3ccc(N4CCNCC4)cc3)C2)O1 .
1.04

Enter log10 of IC50 (test system human TLR7 (Homo sapiens, UniProt Q9NYK1)) for Cc1cc(N2CCN(C[C@H]3CN(c4ccc(C#N)c5nccnc45)C[C@@H](C)O3)CC2)nc(N2CC(N)C2)n1
0.60

Provide measured log10 of IC50 on human TLR7 (Homo sapiens, UniProt Q9NYK1) for C[C@@H]1CN(c2ccc(C#N)n3ncc(F)c23)C[C@H](CN2CC(c3ccc(N4C[C@@H]5C[C@H]4CN5)nc3)C2)O1 please.
0.85
